Assay: Volume of distribution in rat at 3 mg/kg, iv
Type: ADME, organism-based
Set-up: dose 3 mg/kg, route intravenous
Details: in vivo
Readout Name: Vd (L/kg)
// return numeric value only (unit: L/kg, not printed)

As a guide, the following entries are already answered.
| Compound | U | Vd |
| --- | --- | --- |
| COc1cccc(-c2c(C)n(Cc3c(F)cccc3F)c(=O)n(C[C@H](NCCCC(=O)O)c3ccccc3)c2=O)c1F | L/kg | 8.5 |
| COc1cccc(-c2c(C)n(Cc3c(F)cccc3C(F)(F)F)c(=O)n(C[C@@H](c3ccccc3)N(C)CCCC(=O)O)c2=O)c1F | L/kg | 3.2 |

Please find the next compound below.
Ask: Entry under review: COc1cccc(-c2c(C)n(Cc3c(F)cccc3C(F)(F)F)c(=O)n(C[C@H](NCCCC(=O)[O-])c3ccccc3)c2=O)c1F.[Na+] [ELAGOLIX SODIUM] . Reported Vd?
Reply: 2.6

Cited source: ChEMBL document CHEMBL1140215
